target: T1, recombinant fibronectin domain ED-B (His)6 (human, UniProt P02751 1266-1356); assay: SPR (BIAcore), ED-B immobilised on chip, Fab in flow
T1 construct: domain: ED-B; Produced by standard procedures; immobilised on ELISA plates or on the BIAcore chip; also called recombinant ED-B; human ED-B
property.label: Kd (nM)
Write the answer as a number in nM, unit excluded.

Entry MOR02619 (Fab, V domains shown, HuCAL GOLD Fab, VH4/L1) VH: QVQLQESGPGLVKPGETLSLTCTVSGGSISSYYWSWIRQAPGKGLEWIGIGHWGSTQYNPSLKGRVTISVDTSKNQFSLKLSSVTAEDTAVYYCARFFDVWGQGTLVTVSS VL: DIVLTQPPSVSGAPGQRVTISCSGSSSNIGSNTVRWYQQLPGTAPKLLIYSNNKRPSGVPDRFSGSKSGTSASLAITGLQSEDEADYYCQSWDGASTGVFGGGTKLTVLG — recorded Kd = 15.4
